Provenance of the data: patent US11839613B2

target: PTGER4 (EP4) (Homo sapiens (Human), UniProt P35408); test: cell-based
Sequence (P35408 whole entry): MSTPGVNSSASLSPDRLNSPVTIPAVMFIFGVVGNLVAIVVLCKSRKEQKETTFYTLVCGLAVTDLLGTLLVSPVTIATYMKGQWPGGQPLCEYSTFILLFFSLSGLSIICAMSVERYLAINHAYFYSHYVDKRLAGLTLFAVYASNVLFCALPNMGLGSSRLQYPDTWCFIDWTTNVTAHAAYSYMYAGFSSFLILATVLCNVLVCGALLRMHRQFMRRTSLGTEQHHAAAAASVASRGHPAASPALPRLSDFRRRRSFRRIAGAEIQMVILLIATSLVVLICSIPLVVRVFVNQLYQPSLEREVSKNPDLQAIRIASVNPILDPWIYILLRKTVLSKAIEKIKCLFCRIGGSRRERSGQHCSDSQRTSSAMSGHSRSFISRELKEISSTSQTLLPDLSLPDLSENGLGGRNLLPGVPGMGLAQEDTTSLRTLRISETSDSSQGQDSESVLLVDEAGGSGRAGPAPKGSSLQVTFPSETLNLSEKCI
valueType: pIC50
Note on units: pIC50 is unitless, being -log10 of a concentration expressed in mol/L.

Here's what some known entries look like.
entrySmiles	numericResult
CCCc1cc(-c2cc(NCCc3cc4c(cc3OC)OCCO4)ncn2)ccc1C(=O)O	6.81
CSc1cc(-c2cc(NCCc3ccc4occc4c3)ncn2)ccc1C(=O)O	6.57
CCOc1cc2c(cc1CCNc1cc(-c3ccc(C(=O)O)c(OC4CC4)c3)ncn1)OCCO2	6.89

-- ask If you can, please state the reported pIC50 value of CSc1cc(-c2cc(NCCc3ccc4sccc4c3)ncn2)ccc1C(=O)O .
-- reply 6.79

-- ask Would you kindly repeat that for CCc1cc(-c2cc(NCCc3cc(F)c4sccc4c3)ncn2)sc1C(=O)O ?
-- reply 7.74
